The values you see were collected from patent US20210115124A1.

For each of the binders below, state its kon.
Molecular target: T1, human VEGF (hVEGF) (human, UniProt P15692 181-395)
T1 construct: also called VEGF-A
T1 sequence: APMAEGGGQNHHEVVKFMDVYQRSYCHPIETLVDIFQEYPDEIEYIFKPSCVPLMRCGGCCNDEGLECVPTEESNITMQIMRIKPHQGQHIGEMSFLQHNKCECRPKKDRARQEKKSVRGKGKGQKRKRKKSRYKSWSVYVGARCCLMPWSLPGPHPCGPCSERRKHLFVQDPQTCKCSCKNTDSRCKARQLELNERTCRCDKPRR
Test: SPR single-cycle;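 further: fab variants injected over hVEGF immobilized on a CM5 chip (Biacore T200), threefold dilution series from 0.02 to 50 nM, kinetics fitted with a 1:1 Langmuir model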
// unit must come after the numeric part

I'd like to know its kon. The binder in question is G6.31 HC-Y56K (Fab, name in Kabat numbering, V domains shown, Fab) VH: EVQLVESGGGLVQPGGSLRLSCAASGFTISDYWIHWVRQAPGKGLEWVAGITPAGGKTYYADSVKGRFTISADTSKNTAYLQMNSLRAEDTAVYYCARFVFFLPYAMDYWGQGTLVTVSS VL: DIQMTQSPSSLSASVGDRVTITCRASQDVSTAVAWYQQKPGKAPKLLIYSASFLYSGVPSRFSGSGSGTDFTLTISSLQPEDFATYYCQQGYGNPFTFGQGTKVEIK 724000 M⁻¹ s⁻¹

Request the reported kon associated with G6.31 HC-T68E (Fab, name in Kabat numbering, V domains shown, Fab) VH: EVQLVESGGGLVQPGGSLRLSCAASGFTISDYWIHWVRQAPGKGLEWVAGITPAGGYTYYADSVKGRFEISADTSKNTAYLQMNSLRAEDTAVYYCARFVFFLPYAMDYWGQGTLVTVSS VL: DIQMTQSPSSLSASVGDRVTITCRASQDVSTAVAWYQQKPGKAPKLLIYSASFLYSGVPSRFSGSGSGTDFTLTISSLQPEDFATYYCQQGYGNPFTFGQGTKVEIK 215000 M⁻¹ s⁻¹

Given the binder G6.31 LC-P59E (Fab, V domains shown, Fab) VH: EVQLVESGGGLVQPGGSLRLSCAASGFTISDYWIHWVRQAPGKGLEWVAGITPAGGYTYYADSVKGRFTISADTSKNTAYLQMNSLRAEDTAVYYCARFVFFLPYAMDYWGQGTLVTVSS VL: DIQMTQSPSSLSASVGDRVTITCRASQDVSTAVAWYQQKPGKAPKLLIYSASFLYSGVESRFSGSGSGTDFTLTISSLQPEDFATYYCQQGYGNPFTFGQGTKVEIK , what is its reported kon? 284000 M⁻¹ s⁻¹
